Molecular target: UFC1; note: test concentration or dose not given here
Test: reporter assay of Huesken 2005
Conditions: siRNA
Oligonucleotides are written 5' to 3', each unit as a sugar letter and its base; * is a phosphorothioate linkage, no mark a phosphodiester; rarer units and linkages stand in square brackets, end groups in braces. Plain capitals give the bases only. d = 2'-deoxy (DNA); r = 2'-OH (RNA)
Measured normalised inhibition (eCFP-eYFP dual reporter) accompanies every entry in the list below.
propertyMeasured: normalised inhibition (eCFP-eYFP dual reporter) (%)

{"columns": ["substance", "outputUnit", "endpointValue"],
 "data": [
  ["sense rGrArArUrGrUrGrCrCrCrArArArUrUrUrGrGrAdTdT / antisense rUrCrCrArArArUrUrUrGrGrGrCrArCrArUrUrCdCdT", "%", 67.9],
  ["sense rGrCrArGrUrUrCrCrUrGrArGrCrUrGrGrArUrGdTdT / antisense rCrArUrCrCrArGrCrUrCrArGrGrArArCrUrGrCdAdA", "%", 80.1],
  ["sense rGrGrCrUrCrUrGrGrGrGrCrUrGrGrGrUrCrCrAdTdT / antisense rUrGrGrArCrCrCrArGrCrCrCrCrArGrArGrCrCdAdT", "%", 69.9],
  ["sense rArUrUrGrCrArGrUrUrCrCrUrGrArGrCrUrGrGdTdT / antisense rCrCrArGrCrUrCrArGrGrArArCrUrGrCrArArUdTdT", "%", 61.6],
  ["sense rArGrUrCrCrArArCrArArGrGrArArGrGrArArCdTdT / antisense rGrUrUrCrCrUrUrCrCrUrUrGrUrUrGrGrArCrUdCdC", "%", 83.5],
  ["sense rArGrUrUrUrGrArCrArUrCrGrArGrUrUrUrGrAdTdT / antisense rUrCrArArArCrUrCrGrArUrGrUrCrArArArCrUdCdA", "%", 122]
]}
